test system: Enterococcus faecalis; assay: Antimicrobial activity against Enterococcus faecalis ATCC 29212 after 24 to 48 hrs by two-fold broth microdilution method; type: functional
ENDPOINT: MIC90

IN: For the compound shown here, CC(=O)N1N=C(c2ccc([N+](=O)[O-])cc2)OC1c1ccc([N+](=O)[O-])o1 (configuration not stated) , give the reported MIC90.
OUT: 57.3 µM

IN: For the compound shown here, CC(=O)N1N=C(c2ccc(Cl)cc2Cl)OC1c1ccc([N+](=O)[O-])o1 (configuration not stated) , give the reported MIC90.
OUT: 31.7 µM

IN: For the compound shown here, `CCc1ccc(C(=O)N/N=C/c2ccc([N+](=O)[O-])o2)cc1` , give the reported MIC90.
OUT: 69.1 µM

IN: For the compound shown here, `CCOc1ccc(C(=O)N/N=C/c2ccc([N+](=O)[O-])o2)cc1` , give the reported MIC90.
OUT: 34.9 µM

IN: For the compound shown here, CC(=O)N1N=C(c2ccc(F)cc2)OC1c1ccc([N+](=O)[O-])o1 (configuration not stated) , give the reported MIC90.
OUT: 97.3 µM

IN: For the compound shown here, `Nc1ccc(C(=O)N/N=C/c2ccc([N+](=O)[O-])o2)cc1` , give the reported MIC90.
OUT: 5.63 µM

Next:
IN: For the compound shown here, `O=C(N/N=C/c1ccc([N+](=O)[O-])o1)c1ccccc1` , give the reported MIC90.
OUT: 58.8 µM
